- Tested on: K-562 leukemia
- assay.remarks: NCI tumour cell line growth inhibition, 48 h
endpoint: GI50

Before answering, review these 2 worked examples.
[
  {
    "compound": "CCN1CCN(c2nc(NNC(=O)Cc3ccccc3)nc(N3CCN(C(c4ccccc4)c4ccccc4)CC3)n2)CC1",
    "target.desc": "K-562 leukemia",
    "endpoint": "GI50",
    "obs.value": "1.8 µM"
  },
  {
    "compound": "CC[C@@]1(O)C(=O)NCc2c1cc1n(c2=O)Cc2cc3ccccc3nc2-1",
    "target.desc": "K-562 leukemia",
    "endpoint": "GI50",
    "obs.value": "4.4 µM"
  }
]

Okay, next one:
Recorded GI50 of COc1ccc2c(c1)CCC1C2CC[C@@]2(C)C1CC[C@@]2(O)CNC(=O)/C=C/c1ccc(O)c(OC)c1 (stereo partly drawn) , please.
12.3 µM

* * *

- Tested on: SK-MEL-5 melanoma
- assay.remarks: NCI tumour cell line growth inhibition, 48 h
Entry flag: Criterion met if TGI reaches 20 µM; Criterion not met if it does not.

[
  {
    "compound": "CN(C)CCOC(=O)COc1ccc(Cl)cc1",
    "target.desc": "SK-MEL-5 melanoma",
    "label.class": "Criterion met"
  },
  {
    "compound": "COC(=O)/C=C/C(=O)C1C(C(=O)OC)C2(C(=O)OC)CCC1(C(=O)OC)N2 (centres undefined)",
    "target.desc": "SK-MEL-5 melanoma",
    "label.class": "Criterion met"
  },
  {
    "compound": "COc1cc(C)c(C(=O)O[C@H]2[C@H](O[C@H]3[C@@H](O)COC(O[C@H]4C[C@H]5[C@@H]6CC=C7C[C@@H](O)CC[C@]7(C)[C@H]6CC[C@]5(C)[C@H]4[C@H](C)C(=O)CCC(C)C)[C@@H]3OC(C)=O)OC[C@@H](O)[C@@H]2O)c(C)c1 (some centres undefined)",
    "target.desc": "SK-MEL-5 melanoma",
    "label.class": "Criterion not met"
  }
]

Check the entry CCCCCCCCCCCCn1c(C)nc2ccccc21 : does TGI equal or exceed 20 µM?
Criterion not met

And for CCCn1c(C23CC4CC(CC(C4)C2)C3)nc2ccc(Cl)cc2c1=O ?
Criterion met

# iterate: c1ccc(CCN2CCCCCC2)nc1
Criterion met

What about this compound? O=C(c1ccccc1Nc1ccnc(C(F)(F)F)c1)N1CCN(c2cccc(Cl)c2)CC1
Criterion met

For C=C(C=O)C1CC(=O)C(C(=O)OC)[C@@H]2O[C@@](C)(CC2=O)C[C@@H]2OC(=O)[C@]3(O[C@@H]23)[C@@H](C(=O)OC)C1 (some centres undefined) then?
Criterion met

Moving on to CC(C)(CO)CNc1nc(N)nc(Cl)c1N
Criterion met

// query: N#Cc1c(Nc2ccc(F)cc2)[n+]([O-])c2ccc(Cl)cc2[n+]1[O-]
Criterion met

Another compound: COc1ccc2cccc(C(=O)c3ccc(C)c4c3CCC4)c2c1
Criterion met

Again, but for O=C1c2ccccc2C(=O)c2c1ccc(C(Br)Br)c2[N+](=O)[O-]
Criterion not met

Then this compound: Cc1cccc(C(C)(C)C)c1NC(=O)/C(Cc1nc2ccc([N+](=O)[O-])cc2[nH]c1=O)=N/NC(=O)C[N+](C)(C)C
Criterion met

And COC(=O)C(=O)C1(CCC(C)=O)c2ccccc2-c2ccccc21 ?
Criterion met

What about O=C(CC(=O)N1N=C(c2ccccc2)C(N=Nc2ccc(C(=O)O)cc2)C1=O)Nc1ccc(F)cc1 (centres undefined) ?
Criterion met

Likewise for O=[N+]([O-])c1cccc([N+](=O)[O-])c1S(=O)(=O)c1ccccc1 ?
Criterion met
